Source: ChEMBL document CHEMBL1145274

# Organism: Homo sapiens
# experiment.description: Inhibitory concentration for anti-platelet aggregation induced by arachidonic acid at 100 uM concentration
# Assay type: functional, organism-based

{"columns": ["compound.string", "operator.symbol", "IC50 [µM]"],
 "data": [
  ["COc1cccc2c(=O)oc(C)nc12", ">", 100],
  ["O=c1oc(-c2ccccc2Br)nc2c(Cl)cccc12", "=", 10.2],
  ["COc1cccc2c(=O)oc(-c3ccc(Cl)cc3)nc12", ">", 100],
  ["COc1ccccc1-c1nc2c(C)cccc2c(=O)o1", "=", 36.6],
  ["CCCCc1nc2c(OC)cccc2c(=O)o1", ">", 100],
  ["COc1cccc2c(=O)oc(-c3ccccc3Br)nc12", "=", 13],
  ["Cc1cccc2c(=O)oc(-c3ccccc3F)nc12", "=", 6.8],
  ["COc1cccc2c(=O)oc(-c3ccc(Br)cc3)nc12", ">", 100],
  ["COc1cccc2c(=O)oc(-c3ccccc3Cl)nc12", "=", 11.8]
]}

* * *

# Organism: Homo sapiens
# experiment.description: Inhibitory concentration for anti-platelet aggregation induced by platelet activating factor at 2 ng/mL concentration
# Assay type: functional, organism-based
pIC50: −log10 of the molar value.
readout.kind: pIC50

{"columns": ["compound.string", "measured"],
 "data": [
  ["CCc1nc2c(OC)cccc2c(=O)o1", "< 4.40"],
  ["O=c1oc(-c2ccccc2Br)nc2c(Cl)cccc12", 4.06],
  ["COc1cccc2c(=O)oc(-c3ccccc3Br)nc12", "< 4.00"],
  ["COc1cccc2c(=O)oc(-c3ccccc3)nc12", "< 4.00"],
  ["COc1ccccc1-c1nc2c(C)cccc2c(=O)o1", "< 4.00"],
  ["COc1cccc2c(=O)oc(-c3ccc(Br)cc3)nc12", "< 4.00"],
  ["COc1cccc2c(=O)oc(-c3ccc(Cl)cc3)nc12", "< 4.00"],
  ["COc1ccccc1-c1nc2c(OC)cccc2c(=O)o1", "< 4.00"],
  ["O=c1oc(-c2ccccc2F)nc2c(Cl)cccc12", 4.06],
  ["Cc1cccc2c(=O)oc(-c3ccccc3Cl)nc12", "< 4.00"],
  ["COc1ccccc1-c1nc2c(Cl)cccc2c(=O)o1", 4.15],
  ["COc1cccc2c(=O)oc(C)nc12", "< 4.00"],
  ["Cc1cccc2c(=O)oc(-c3ccccc3Br)nc12", 4.05],
  ["Cc1ccccc1-c1nc2c(C)cccc2c(=O)o1", "< 4.00"],
  ["COc1cccc2c(=O)oc(-c3ccccc3Cl)nc12", "< 4.00"],
  ["COc1cccc2c(=O)oc(-c3ccccc3C)nc12", "< 4.00"],
  ["CCCCc1nc2c(OC)cccc2c(=O)o1", "< 4.00"],
  ["Cc1ccccc1-c1nc2c(Cl)cccc2c(=O)o1", 4.04],
  ["Cc1cccc2c(=O)oc(-c3ccccc3F)nc12", "< 4.00"],
  ["O=c1oc(-c2ccccc2Cl)nc2c(Cl)cccc12", 4.16],
  ["CC(=O)Oc1ccccc1C(=O)O", "< 4.00"],
  ["COc1cccc2c(=O)oc(-c3ccccc3F)nc12", "< 4.00"]
]}

* * *

# Organism: Homo sapiens
# experiment.description: Inhibitory concentration against neutrophil elastase release induced by FMLP (formyl-Met-Leu-Phe)
# Assay type: functional, organism-based
pIC50: −log10 of the molar value.
readout.kind: pIC50

{"columns": ["compound.string", "operator.symbol", "measured"],
 "data": [
  ["COc1ccccc1-c1nc2c(C)cccc2c(=O)o1", "=", 5.14],
  ["COc1cccc2c(=O)oc(C)nc12", "<", 4.40],
  ["O=c1oc(-c2ccccc2Cl)nc2c(Cl)cccc12", "=", 5.72],
  ["COc1cccc2c(=O)oc(-c3ccccc3)nc12", "<", 4.40],
  ["Cc1cccc2c(=O)oc(-c3ccccc3Cl)nc12", "<", 4.40],
  ["O=c1oc(-c2ccccc2F)nc2c(Cl)cccc12", "=", 5.22],
  ["Cc1cccc2c(=O)oc(-c3ccccc3F)nc12", "<", 4.40],
  ["COc1ccccc1-c1nc2c(Cl)cccc2c(=O)o1", "=", 5.72],
  ["Cc1ccccc1-c1nc2c(Cl)cccc2c(=O)o1", "<", 4.40],
  ["O=c1oc(-c2ccccc2Br)nc2c(Cl)cccc12", "=", 5.77],
  ["COc1cccc2c(=O)oc(-c3ccccc3C)nc12", "=", 4.98],
  ["COc1ccccc1-c1nc2c(OC)cccc2c(=O)o1", "=", 5.80],
  ["CCCCc1nc2c(OC)cccc2c(=O)o1", "<", 4.40],
  ["Cc1ccccc1-c1nc2c(C)cccc2c(=O)o1", "<", 4.40],
  ["CCc1nc2c(OC)cccc2c(=O)o1", "=", 4.00],
  ["Cc1cccc2c(=O)oc(-c3ccccc3Br)nc12", "<", 4.40]
]}
